- System: no-11;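 note: growth inhibition of human NO-11 cells, read out with a cell viability assay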
- procedure.details: cells
- Type: functional, cell-based, Homo sapiens
- run.conditions: Homo sapiens
- Description: SANGER: Inhibition of human no-11 cell growth in a cell viability assay.
endpoint: IC50

Input Cc1cn(-c2cc(NC(=O)c3ccc(C)c(Nc4nccc(-c5cccnc5)n4)c3)cc(C(F)(F)F)c2)cn1 . Output IC50: > 2 µM

Input CCN(CC)CCCCNc1ncc2cc(-c3cc(OC)cc(OC)c3)c(NC(=O)NC(C)(C)C)nc2n1 . Output IC50: > 2 µM

Input Nc1cccc2c1CN(C1CCC(=O)NC1=O)C2=O (centres undefined) [LENALIDOMIDE] . Output IC50: > 5 µM

Input CC[C@H](CO)Nc1nc(NCc2ccccc2)c2ncn(C(C)C)c2n1 . Output IC50: > 16 µM

###

- System: LS-123
- procedure.details: cells
- Type: functional, cell-based, Homo sapiens
- run.conditions: Homo sapiens, LS-123
- Description: SANGER: Inhibition of human LS-123 cell growth in a cell viability assay.
endpoint: pIC50
Give only the number. pIC50 is defined as minus log10 of concentration in molar units.

Worked examples follow.
COc1cccc2c1C(=O)c1c(O)c3c(c(O)c1C2=O)C[C@@](O)(C(=O)CO)C[C@@H]3O[C@H]1C[C@H](N)[C@H](O)[C@H](C)O1 [DOXORUBICIN]: 7.73
COc1cc2ncn(-c3cc(OCc4ccccc4C(F)(F)F)c(C(N)=O)s3)c2cc1OC [GW843682X]: 6.71
Oc1ccc2ccccc2c1SSc1c(O)ccc2ccccc12: 5.06

Lab entry: LS-123 assay, molecule OCCCNc1cc(-c2ccnc(Nc3cccc(Cl)c3)n2)ccn1 , pIC50 = 7.03

###

- System: BFTC-909
- procedure.details: cells
- Assay type: functional, cell-based, Homo sapiens
- run.conditions: bftc-909
- Description: SANGER: Inhibition of human BFTC-909 cell growth in a cell viability assay.
endpoint: IC50 (µM)
Answer with a number only, understood to be in µM.

CISPLATIN: 14.9

Please examine the following record next.
Input BLEOMYCIN . Output IC50: 0.0138

###

- System: THP-1;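 note: growth inhibition of THP-1 cells, read out via a cell viability assay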
- procedure.details: cells
- Assay type: functional, cell-based, Homo sapiens
- run.conditions: Homo sapiens, THP-1
- Description: SANGER: Inhibition of human THP-1 cell growth in a cell viability assay.
pIC50: −log10 of the molar value. Structures can show the parent of a compound that is named as a salt.
endpoint: pIC50

COC1=CC(c2cc3ccccc3[nH]2)=N/C1=C\c1[nH]c(C)cc1C [OBATOCLAX MESYLATE]: 7.70
COc1cc(N2CCN(C)CC2)ccc1Nc1ncc2c(n1)N(C)c1ccccc1C(=O)N2C: < 5.10
COc1cc2ncn(-c3cc(OCc4ccccc4C(F)(F)F)c(C(N)=O)s3)c2cc1OC [GW843682X]: < 6.59
COc1cc(-c2nn([C@H]3CC[C@H](N4CCN(C(C)=O)CC4)CC3)c3ncnc(N)c23)ccc1NC(=O)c1cc2ccccc2n1C: < 5.29

Please examine the following record next.
Input O=C(O)c1ccc(-c2c[nH]c3ncc(-c4ccccc4)cc23)cc1C1CCCC1 [GSK-650394] . Output pIC50: < 4.80

###

- Test system: CGTH-W-1;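 note: growth inhibition of human CGTH-W-1 cells measured by cell viability assay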
- procedure.details: cells
- Assay type: functional, cell-based, Homo sapiens
- run.conditions: Homo sapiens, CGTH-W-1
- Description: SANGER: Inhibition of human CGTH-W-1 cell growth in a cell viability assay.
endpoint: IC50

Cc1cc([N+](=O)[O-])ccc1NS(=O)(=O)c1cc(Cl)ccc1Cl: 11.9 µM
N[C@@H](CSC(c1ccccc1)(c1ccccc1)c1ccccc1)C(=O)O: > 5.12 µM
N#Cc1c(O)c2c(-c3ccc(-c4ccccc4O)cc3)csc2[nH]c1=O: > 1.02 µM
CC(C)c1ccccc1Cc1cc(C(=O)Nc2ccc(S(=O)(=O)c3ccccc3C(C)(C)C)cc2)c(O)c(O)c1O: 0.186 µM
CC(C)CCN1c2nc(Nc3cc(F)c(O)c(F)c3)ncc2N(C)C(=O)C1C (centres undefined): 3.94 µM

Input C#Cc1cccc(Nc2ncnc3cc(OCCOC)c(OCCOC)cc23)c1 . Output IC50: > 2 µM

Input CCC/C=C/C=C/C(=O)O[C@H]1/C(=C/C(=O)OC)C[C@H]2C[C@H]([C@@H](C)O)OC(=O)C[C@H](O)C[C@@H]3C[C@H](OC(C)=O)C(C)(C)[C@](O)(C[C@@H]4C/C(=C/C(=O)OC)C[C@H](/C=C/C(C)(C)[C@]1(O)O2)O4)O3 . Output IC50: > 0.008 µM

Input COc1cc(N2CCN(C)CC2)ccc1Nc1ncc2c(n1)N(C)c1ccccc1C(=O)N2C . Output IC50: > 8 µM

Input COc1cc(-c2nn([C@H]3CC[C@H](N4CCN(C(C)=O)CC4)CC3)c3ncnc(N)c23)ccc1NC(=O)c1cc2ccccc2n1C . Output IC50: > 5.12 µM

Input Nc1cccc2c1CN(C1CCC(=O)NC1=O)C2=O (centres undefined) [LENALIDOMIDE] . Output IC50: > 5 µM

Input Cc1ccc(-c2c(C(=O)CCl)n(CCCO)c3ncnc(N)c23)cc1 . Output IC50: > 4 µM

Input COc1cc2ncn(-c3cc(OCc4ccccc4S(C)(=O)=O)c(C#N)s3)c2cc1OC [GSK-319347A] . Output IC50: > 5 µM

Input CC(=O)O[C@H]1C(=O)[C@@]2(C)[C@H]([C@H](OC(=O)c3ccccc3)[C@]3(O)C[C@H](OC(=O)[C@H](O)[C@@H](NC(=O)c4ccccc4)c4ccccc4)C(C)=C1C3(C)C)[C@]1(OC(C)=O)CO[C@@H]1C[C@@H]2O . Output IC50: 0.0545 µM

Input CO[C@H]1C[C@@H]2CC[C@@H](C)[C@@](O)(O2)C(=O)C(=O)N2CCCC[C@H]2C(=O)O[C@H]([C@H](C)C[C@@H]2CC[C@@H](OC(=O)C(C)(CO)CO)[C@H](OC)C2)CC(=O)[C@H](C)/C=C(\C)[C@@H](O)[C@@H](OC)C(=O)[C@H](C)C[C@H](C)/C=C/C=C/C=C/1C . Output IC50: 0.00575 µM

###

- System: Panc1005;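 note: growth inhibition of human PANC-10-05 cells, measured by a cell viability assay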
- procedure.details: cells
- Type: functional, cell-based, Homo sapiens
- run.conditions: panc1005
- Description: SANGER: Inhibition of human PANC-10-05 cell growth in a cell viability assay.
endpoint: IC50
Provide the measurement as a number trailed by its unit.

Input BLEOMYCIN . Output IC50: 256 nM

###

Catalogue of IC50 readings, one per entry.
- Test system: KARPAS-45;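 note: inhibition of cell line growth, read out through a viability assay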
- procedure.details: cells
- Format: functional, cell-based, Homo sapiens
- run.conditions: karpas-45
- Description: SANGER: Inhibition of human KARPAS-45 cell growth in a cell viability assay.
Answer with a number only, understood to be in µM.

BLEOMYCIN: 213

Please examine the following record next.
Lab entry: KARPAS-45 assay, sequence CISPLATIN , IC50 = 361

###

Catalogue of IC50 readings, one per entry.
- Tested on: LB2241-RCC;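 note: cell viability assay measuring how strongly the cultured human renal carcinoma line is prevented from growing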
- procedure.details: cells
- Assay type: functional, cell-based, Homo sapiens
- run.conditions: Homo sapiens, LB2241-RCC
- Description: SANGER: Inhibition of human LB2241-RCC cell growth in a cell viability assay.
Answer with a number only, understood to be in nM.

Worked examples follow.
COc1cc2c(Nc3ccc(NC(=O)c4ccccc4)cc3)ncnc2cc1OCCCN1CCOCC1: 1040
Oc1ccc2ccccc2c1SSc1c(O)ccc2ccccc12: 28000

Input CC(C)c1ccccc1Cc1cc(C(=O)Nc2ccc(S(=O)(=O)c3ccccc3C(C)(C)C)cc2)c(O)c(O)c1O . Output IC50: 147

###

- Test system: OVCAR-5
- procedure.details: cells
- Assay type: functional, cell-based, Homo sapiens
- run.conditions: Homo sapiens, OVCAR-5
- Description: SANGER: Inhibition of human OVCAR-5 cell growth in a cell viability assay.
pIC50: −log10 of the molar value.
endpoint: pIC50

Worked examples follow.
Nc1ccn([C@@H]2O[C@H](CO)[C@@H](O)C2(F)F)c(=O)n1 [GEMCITABINE]: 6.51
CC(C)CCN1c2nc(Nc3cc(F)c(O)c(F)c3)ncc2N(C)C(=O)C1C (configuration not stated): < 5.30
CCN(CC)CCCCNc1ncc2cc(-c3cc(OC)cc(OC)c3)c(NC(=O)NC(C)(C)C)nc2n1 [PD-173074]: < 5.70
CCC/C=C/C=C/C(=O)O[C@H]1/C(=C/C(=O)OC)C[C@H]2C[C@H]([C@@H](C)O)OC(=O)C[C@H](O)C[C@@H]3C[C@H](OC(C)=O)C(C)(C)[C@](O)(C[C@@H]4C/C(=C/C(=O)OC)C[C@H](/C=C/C(C)(C)[C@]1(O)O2)O4)O3 [BRYOSTATIN 1]: < 8.10
Oc1ccc2ccccc2c1SSc1c(O)ccc2ccccc12: < 4.49
CC(C)c1ccccc1Cc1cc(C(=O)Nc2ccc(S(=O)(=O)c3ccccc3C(C)(C)C)cc2)c(O)c(O)c1O: 6.24

Please examine the following record next.
Input Nc1cccc2c1CN(C1CCC(=O)NC1=O)C2=O (configuration not stated) [LENALIDOMIDE] . Output pIC50: < 5.30

###

Catalogue of IC50 readings, one per entry.
- Tested on: LU-135
- procedure.details: cells
- Format: functional, cell-based, Homo sapiens
- run.conditions: Homo sapiens, LU-135
- Description: SANGER: Inhibition of human LU-135 cell growth in a cell viability assay.

CC(C)CCN1c2nc(Nc3cc(F)c(O)c(F)c3)ncc2N(C)C(=O)C1C (configuration not stated): > 5 µM

Please examine the following record next.
Input CS(=O)(=O)c1ccc(C(=O)Nc2ccc(Cl)c(-c3ccccn3)c2)c(Cl)c1 . Output IC50: > 10 µM
